- system_name: T1, human TSLP (human, UniProt Q969D9 29-159)
- T1 construct: also called hTSLP; rhTSLP
- protocol_notes: SPR
Overview of reported Kd across a group of binders:
// units = nM; emit number, no label

# count of solved cases: 2
binder: BDG33.023 (antibody, V domains shown, standard IgG; also called BGD33.023; BDG33.0023) VH: QMQLVESGGGVVQPGRSLRLSCAASGFAFRTYGMHWVRQAPGKGLEWVAVIWYDGSNTHYADSVKGRFTITRDNSKNTLNLQMNSLRAEDTAVYYCARAPQWYLSAEAFDLWGQGTMVTVSS VL: SYVLTQPPSVSVAPGQTARITCGGNLIGSKLVHWYQQKPGQAPVLVVYDDSDRPSRIPERFSGSNSGNTATLTISRVEAGDEADYYCQVWDHSSDHVVFGGGTKLTVL
unit_info: nM
Kd: 0.0625

binder: BDG38.075 (antibody, V domains shown, IgG1) VH: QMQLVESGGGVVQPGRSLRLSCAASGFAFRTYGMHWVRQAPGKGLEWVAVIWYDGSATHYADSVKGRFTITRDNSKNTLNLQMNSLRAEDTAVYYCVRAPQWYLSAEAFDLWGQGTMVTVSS VL: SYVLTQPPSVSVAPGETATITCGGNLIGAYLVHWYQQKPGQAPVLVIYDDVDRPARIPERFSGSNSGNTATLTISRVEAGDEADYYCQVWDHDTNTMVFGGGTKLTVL
unit_info: nM
Kd: 0.012

Read the next record carefully.
// recorded Kd for BDG38.081 (antibody, V domains shown, IgG1) VH: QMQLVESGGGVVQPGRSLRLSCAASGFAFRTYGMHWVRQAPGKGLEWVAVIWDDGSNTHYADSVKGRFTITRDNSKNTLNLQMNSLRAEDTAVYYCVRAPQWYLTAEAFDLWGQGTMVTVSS VL: SYVLTQPPSVSVAPGQTARITCGGNMIGAYLVHWYQQKPGQAPLLVIYDDVDRPDRIPERFSGSNSGNTATLTISRVEAGDEADYYCQVWDHNTQQMVFGGGTKLTVL : 0.0692
